system: biotinyl-Trp-oxazolone; test: self-aminoacylation, catalytic enhancement (BWO) (fold over background); higher = more active; k-Seq, kA / k0A0; sequences stand for … in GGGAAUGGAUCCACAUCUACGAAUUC…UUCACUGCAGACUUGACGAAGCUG
Variants at the floor of the assay were thinned out.
MEASUREMENT_TYPE: self-aminoacylation
Keep it simple and answer with nothing but the number.

Fetch value of self-aminoacylation on biotinyl-Trp-oxazolone for AAUUUUGCUUAUAGUCGCAAG [Fam3.1 aminoacylation ribozyme variant] .
2.28

Fetch value of self-aminoacylation on biotinyl-Trp-oxazolone for CCACACUACAAGCGAUCGGUC [Fam1B.1 aminoacylation ribozyme variant] .
1.03

Further cases:
Fetch value of self-aminoacylation on biotinyl-Trp-oxazolone for CCACACCUGAAGCAAUCGGUC [Fam1B.1 aminoacylation ribozyme variant] .
0.911

Fetch value of self-aminoacylation on biotinyl-Trp-oxazolone for CCACACUUCGCGCAAUCGGUC [Fam1B.1 aminoacylation ribozyme variant] .
2.77

Fetch value of self-aminoacylation on biotinyl-Trp-oxazolone for CCACACUUCAGGCAAUCGGUC [Fam1B.1 aminoacylation ribozyme variant] .
1.28

Entry source: the supplement of paper PMC9233669
